Tested on: Fibroblast
Assay: Multiplex assay against human fibroblast
Type: toxicity, cell-based
Details: 48 h, 10 µM, compound concentration 10 uM, replicate 1
Non-standard residues stand in square brackets, D forms with d. Residues, ends and D or L forms follow the SMILES beside them.
MEASURE_NAME: Population Mitotic Cells (%)

# COMPOUND, VALUE_OBSERVED
measured = [
    ("CC(C)C[C@H](CO)Nc1nc(S[C@@H](C)c2ccccc2)nc2nc(N)sc12 [AZD-8797]", 40),
    ("Cn1cc(C(=O)OCC2CCN(CCNS(C)(=O)=O)CC2)c2ccccc21", 32),
    ("CN(C)C(=O)Cn1cc(-c2ccc(-c3nnc4ccccn34)cc2)cn1", 47),
    ("CC(F)(F)CN1CCOc2c(nn(-c3ccccc3Cl)c2-c2ccc(Cl)cc2)C1=O", 21),
    ("C[C@@H]1CC(=O)Nc2cccc(-c3ccc4c(c3)c(-c3cnn(C)c3)nn4C)c2N1", 7),
    ("COCCCN1CCC(NC(=O)c2cc(Cl)c(N)c3c2OCC3)CC1 [PRUCALOPRIDE]", 35),
    ("CC(C)C[C@@H]1NC(=O)[C@@H](C(C)C)NC(=O)[C@@H]2CCCN2C(=O)[C@@H](CC(=O)O)NC(=O)[C@@H](Cc2c[nH]c3ccccc23)NC1=O [BQ-123] (cyclo(L[dW][dD]P[dV]))", 29),
    ("O=C(Nc1cc(-c2ccccc2)nn1-c1ccccc1F)c1ccc([N+](=O)[O-])cc1", 33),
    ("O=C(NCCNCC(O)COc1ccc(O)cc1)N1CCOCC1.O=C(NCCNCC(O)COc1ccc(O)cc1)N1CCOCC1.O=C(O)/C=C/C(=O)O (configuration not stated) [XAMOTEROL FUMARATE]", 43),
    ("CN1CCN(c2ccc(Nc3c4ccccc4nc4ccccc34)cc2)CC1.Cl.Cl.O", 31),
    ("OCCCNc1cc(-c2ccnc(Nc3cccc(Cl)c3)n2)ccn1", 8),
    ("Cc1cc(=O)n(C)c2cc(N3C(=O)CC[C@H](NS(=O)(=O)CC(C)C)[C@H]3c3ccc(Cl)cc3)ccc12", 38),
    ("COC(c1ccccc1)(c1ccccc1)[C@H](Oc1nc(C)cc(C)n1)C(=O)O [AMBRISENTAN]", 38),
    ("CC(C)(O)C(=O)N1CCN(c2ccc(C(F)(F)F)c(C3=C(c4c[nH]c5ccccc45)C(=O)NC3=O)c2)CC1", 45),
    ("Nc1nc(CC(=O)Nc2ccc(CCNC[C@H](O)c3ccccc3)cc2)cs1 [MIRABEGRON]", 35),
    ("CSc1nc(NC2CCCC2)c([N+](=O)[O-])c(NC2CCCC2)n1 [GS-39783]", 33),
    ("CN(C)C/C=C/C(=O)Nc1ccc(C(=O)N2CCCC(Nc3ncc(Cl)c(-c4c[nH]c5ccccc45)n3)C2)cc1 (configuration not stated)", 22),
]
